The following compounds are shown together with reported GI50 values.
# System: HOP-62
# protocolText: Cytotoxicity against human HOP62 cell line
# Format: functional
Use nM as the unit, but write only the number.

- itemSmiles: "COc1cc2c3c(n(CCCn4cncn4)c(=O)c2cc1OC)-c1cc2c(cc1C3=O)OCO2"
  unitAbbrev: "nM"
  GI50: 79
- itemSmiles: "COc1cc2c3c(n(CCCN4CCN(CCO)CC4)c(=O)c2cc1OC)-c1cc2c(cc1C3=O)OCO2"
  unitAbbrev: "nM"
  GI50: 9770
- itemSmiles: "O=C1c2ccccc2-c2c1c1ccc([N+](=O)[O-])cc1c(=O)n2CCCn1ccnc1"
  unitAbbrev: "nM"
  GI50: 190

Here is the next item to consider.
I'd like to know its GI50. The compound in question is COc1cc2c3c(n(C)c(=O)c2cc1OC)-c1cc2c(cc1C3=O)OCO2 1300
